- Tested on: InrS E98A (Synechocystis PCC 6803)
- assay-summary: fluorescence anisotropy
- test-settings: Ni(II), 1.2 molar excess, 10 nM labelled DNA, 10 mM HEPES pH 7.0, 60 mM NaCl, 240 mM KCl, 25 C, anaerobic, 5 mM EDTA for apo or 1.2x (InrS) / 2.2x (ZiaR) metal …
property-measured: pKd
Give bare numbers, as −log10 of the molar value.

# pKd lookup, item TCATCAATATCCCCCCTGGGGGCATAGAATAGA (double strand) [nrsDProFA (nrsD operator-promoter)]
5.89

###

- Tested on: InrS (Synechocystis PCC 6803)
- assay-summary: fluorescence anisotropy
- test-settings: Zn(II), 1.2 molar excess, 10 nM labelled DNA, 10 mM HEPES pH 7.0, 60 mM NaCl, 240 mM KCl, 25 C, anaerobic, 5 mM EDTA for apo or 1.2x (InrS) / 2.2x (ZiaR) metal …
property-measured: Kd (nM)
Answers are plain numbers, in nM.

Please look up its Kd: TCATCAATATCCCCCCTGGGGGCATAGAATAGA (double strand) [nrsDProFA (nrsD operator-promoter)]
980

###

- Test system: InrS (Synechocystis PCC 6803)
- assay-summary: fluorescence anisotropy
- test-settings: Cu(II), 1.2 molar excess, 10 nM labelled DNA, 10 mM HEPES pH 7.0, 60 mM NaCl, 240 mM KCl, 25 C, anaerobic, 5 mM EDTA for apo or 1.2x (InrS) / 2.2x (ZiaR) metal …
property-measured: Kd

Item under review: TCATCAATATCCCCCCTGGGGGCATAGAATAGA (double strand) [nrsDProFA (nrsD operator-promoter)] . Reported Kd?
3.6 µM

###

- Tested on: InrS (Synechocystis PCC 6803)
- assay-summary: fluorescence anisotropy
- test-settings: Ni(II), 1.2 molar excess, 10 nM labelled DNA, 10 mM HEPES pH 7.0, 60 mM NaCl, 240 mM KCl, 25 C, anaerobic, 5 mM EDTA for apo or 1.2x (InrS) / 2.2x (ZiaR) metal …
property-measured: pKd
Answers are plain numbers, as −log10 of the molar value.

Query: pKd; subject: TCATCAATATCCCCCCTGGGGGCATAGAATAGA (double strand) [nrsDProFA (nrsD operator-promoter)]
5.64

###

- Tested on: InrS E95A (Synechocystis PCC 6803)
- assay-summary: fluorescence anisotropy
- test-settings: Ni(II), 1.2 molar excess, 10 nM labelled DNA, 10 mM HEPES pH 7.0, 60 mM NaCl, 240 mM KCl, 25 C, anaerobic, 5 mM EDTA for apo or 1.2x (InrS) / 2.2x (ZiaR) metal …
property-measured: Kd
Please report the result as a number followed by the unit.

Could you tell me which Kd is on file for TCATCAATATCCCCCCTGGGGGCATAGAATAGA (double strand) [nrsDProFA (nrsD operator-promoter)] ?
1400 nM

###

- Test system: InrS E98A (Synechocystis PCC 6803)
- assay-summary: fluorescence anisotropy
- test-settings: apo, 5 mM EDTA, 10 nM labelled DNA, 10 mM HEPES pH 7.0, 60 mM NaCl, 240 mM KCl, 25 C, anaerobic, 5 mM EDTA for apo or 1.2x (InrS) / 2.2x (ZiaR) metal …
property-measured: Kd (µM)
Give bare numbers, in µM.

For TCATCAATATCCCCCCTGGGGGCATAGAATAGA (double strand) [nrsDProFA (nrsD operator-promoter)] , what is its reported Kd?
0.021
